Below, each entry is listed with its recorded inhibition of SARS-CoV-2 cytopathic effect.
Tested on: Vero E6 infected with SARS-CoV-2
Measurement Protocol: inhibition of SARS-CoV-2 cytopathic effect; higher = more antiviral protection, active = above 15
Protocol Conditions: 833.33 nM; 48 h
Property Label: inhibition of SARS-CoV-2 cytopathic effect (%)

Compound	Reading Unit	Result Value
CC(=O)NCCCS(=O)(=O)O [acamprosate]	%	-3.15
CCS(=O)(=O)N(Cc1cccnc1)c1cccc(-c2ccc(C#N)cc2)c1	%	4.38
CCN(Cc1ccc(Cl)nc1)/C(=C/[N+](=O)[O-])NC	%	-1.84
COc1ccc(S(=O)(=O)Nc2c(C)cc(C)cc2C)cc1	%	2.21
N[C@@H](C(=O)O)c1nn[nH]n1 (racemic) [tetrazol-5-yl-glycine-(RS)]	%	1.56
CCC(=O)NC[C@H](Cc1ccc(OCCc2nc(-c3ccccc3)oc2C)cc1)N/C(C)=C\C(=O)c1ccc(C(F)(F)F)cc1	%	1.86
C[C@]12CC[C@H](O)CC1=CC[C@@H]1[C@@H]2CC[C@]2(C)C(n3cnc4ccccc43)=CC[C@@H]12	%	-5.02
O=C(O)/C=C/c1ccc(Cn2ccnc2)cc1	%	0.75
COc1ccc(N(C(=O)Oc2c(C)cccc2C)c2ccnc(Nc3ccc(N4CCN(C)CC4)cc3)n2)c(OC)c1	%	0.02
CC(C)(C)C(=O)NCCCC(=O)O	%	0.86
O=C(c1ccc(F)cc1)C1CCN(CCn2c(=O)[nH]c3ccccc3c2=O)CC1	%	2
O=C(CCCN1CCC(O)(c2ccc(Cl)cc2)CC1)c1ccc(F)cc1	%	0.5
C[C@H]1C[C@H]2[C@@H]3CCC4=CC(=O)C=C[C@]4(C)[C@@]3(F)[C@@H](O)C[C@]2(C)[C@@]1(O)C(=O)CO	%	1.69
NCC1CC(=O)N(Cc2ccccc2)C1 (stereo not drawn)	%	1.16
COc1cc(N2CCC(N3CCN(C)CC3)CC2)ccc1Nc1ncnc(Nc2ccccc2S(=O)(=O)C(C)C)n1	%	2.18
CN(C)[C@@H]1CCc2[nH]c3ccc(NC(=O)c4ccc(F)cc4)cc3c2C1	%	3.46
C[C@H]1COC2=C1C(=O)C(=O)c1c2ccc2c1CCCC2(C)C	%	-1.89
N#C/C(=C\c1cccn1S(=O)(=O)c1cccc([N+](=O)[O-])c1)S(=O)(=O)c1ccc(F)cc1	%	-2
